Origin of measurements: PubChem BioAssay

Some compounds, each annotated with its measured z-score.
assay: P. aeruginosa biofilm formation inhibitors, primary screen, PAO1 strain, BacTiter-Glo luminescence, LB-PBS (AID 1144); settings: 12 h, higher = more signal
Write the value as a bare number.

Study these solved cases before continuing.
1) O=C1c2ccccc2[C@](Cc2ccccc2I)(C(=O)NC2CC2)[C@H](c2ccc(CO)cc2)N1C1CCCCC1 ... 0.214
2) Cc1ccc(S[C@]2(C(=O)NCC(F)(F)F)CC(=O)N(C(C)C)[C@@H]2c2ccc(CO)cc2I)cc1 ... 0.111

Need z-score, item O=C1OCCC=C[C@H]2OC34C=CCN(CCN5CCOCC5)C(=O)[C@H]3N(CCCCCCO)C(=O)[C@@H]4C12 (stereo partly specified)
-0.134

How about this compound: [N-]=[N+]=Nc1ccccc1[C@H]1OC(c2ccc(OCCCO)cc2)=N[C@@]1(Cc1ccccc1)C(=O)O
-0.0839

How about this compound: Cc1ccc(C(C)CC(O)C2C=CC3C(=O)N(c4ccccc4)C(=O)C3N2Nc2ccc([N+](=O)[O-])cc2)o1 (stereo unspecified)
-0.99

How about this compound: COCCCNC(=O)[C@@]1(Cc2ccccc2)N=C(c2ccc(OCCCO)cc2)O[C@H]1c1ccccc1
0.669

How about this compound: CN1C(=O)C2C=CC(C(O)c3cccs3)N(Nc3ccccc3)C2C1=O (stereo unspecified)
-0.0101

How about this compound: CN1C2C=C(CCCO)C(C3C(=O)N(C(N)=O)C(=O)C32)C1c1ccc(CN2CCCC2)cc1 (stereo unspecified)
-0.938

How about this compound: Cc1ccc(C(C)CC(O)C2C=CC3C(=O)N(C)C(=O)C3N2NC(=O)OC(C)(C)C)o1 (stereo unspecified)
0.399

---

biological target: Carbonic anhydrase 2 (Homo sapiens); test: CAII small-molecule binders, profiling panel, biochemical, small-molecule microarray, Alexa647-labelled CAII (AID 1122); settings: CAII-A647 binding fluorescence, higher = more signal
reported_property: composite z-score
Write the value as a bare number.

Study these solved cases before continuing.
1) COCC(=C=CC[C@@H](O)c1ccccc1OCCO)C[C@@H](O)c1cc(Cl)cc(Cl)c1O ... 0.38
2) C=CC[C@@]1(C(=O)NCc2ccccc2)N=C(c2ccc(OCCCO)cc2)O[C@@H]1c1ccccc1N=[N+]=[N-] ... 0.712
3) Cc1ccc(C(C)CC(O)C2C=CC3C(=O)N(C)C(=O)C3N2NC(=O)OC(C)(C)C)o1 (configuration not stated) ... 0.642
4) COc1ccc(NN2C(C(O)c3ccc([N+](=O)[O-])cc3)C=CC3C(=O)N(C4CCCCC4)C(=O)C32)cc1 (configuration not stated) ... 0.561
5) CC(C)(C)OC(=O)CC[C@]12N=C(c3ccc(OCCCO)cc3)O[C@H]1c1ccccc1N(CCS(=O)(=O)c1ccccc1)C2=O ... 0.422

Need composite z-score, item COc1ccc([Si](C)(C)[C@H]2[C@H](CCO)O[C@@]3(C(=O)N(Cc4ccc(N5C(=O)COc6ccccc65)cc4)c4ccccc43)[C@@H]2C)cc1
-0.05

How about this compound: CCOC(=O)[C@H]1C/C=C/C[C@H](C(=O)OCC)C(=O)O[C@H]2[C@@H](OC)O[C@H](CO)[C@@H](OC(=O)Nc3cccc(F)c3)[C@@H]2OC1=O
0.66

---

tested on: Wnt5a (protein binding on small-molecule microarray); test: Wnt5a binders on small-molecule microarray, primary screen, biophysical, 635/667 nm fluorescence (AID 1142); conditions: 635 nm fluorescence, higher = more signal;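 note: fluorescence read at 667 nm with signal to noise per printed feature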
reported_property: composite z-score
Write the value as a bare number.

Study these solved cases before continuing.
1) C#CCN(Cc1ccccc1Br)C(/C=C/c1ccccc1)CO (stereo not given) ... -0.15
2) COc1ccc([Si](C)(C)[C@H]2[C@H](CC(=O)N3Cc4ccccc4C[C@H]3CO)O[C@@]3(C(=O)N(Cc4ccc(N5CCC5=O)cc4)c4ccccc43)[C@@H]2C)cc1 ... 0.66
3) NCCCCCNC(=O)[C@@H]1C[C@@H]2C(=O)N[C@@H](Cc3ccccc3)C(=O)N2[C@@H]1c1cccc(OCCO)c1 ... 0.0984

Record lookup: for Wnt5a (protein binding on small-molecule microarray), what composite z-score belongs to COC(=O)[C@@]1(Cc2ccc(OC)cc2)[C@H]2c3cc(C(=O)N(C)C)n(Cc4cccc5ccccc45)c3C[C@H]2CN1C(=O)c1ccccc1 ?
1.44

---

assay: binders of probe aFGF2 on microarray, primary screen, stem cell growth factor project, biochemical, small-molecule microarray, fluorescence 635/667 (AID 1067); conditions: higher = more signal;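 note: measures binding of biotinylated aFGF2 protein to printed compounds on slides; z-score merges feature fluorescence and signal-to-noise across triplicate slides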
reported_property: composite z-score
Write the value as a bare number.

Study these solved cases before continuing.
1) CCOC(=O)C[C@H]1[C@H](OC(=O)c2cc3ccccc3oc2=O)[C@@H](NC(=O)Cc2ccc(OC)cc2)c2cc(OCCCO)ccc2N1C(=O)c1ccccc1 ... -0.076
2) Cc1ccc(C(C)CC(O)C2C=CC3C(=O)N(c4ccccc4)C(=O)C3N2Nc2ccc([N+](=O)[O-])cc2)o1 (stereo not drawn) ... 0.0757
3) CN(C)C(=O)[C@]1(Cc2ccccc2CN=[N+]=[N-])N=C(c2ccc(OCCCO)cc2)O[C@@H]1c1ccccc1CN=[N+]=[N-] ... 0.0858
4) OC([C@@H]1CC(c2ccccc2)=NO1)[C@H]1CC(c2ccccc2)=NO1 (stereo partly drawn) ... -0.0634

Need composite z-score, item COc1cc(OC)c(C(O)C2C=CC3C(=O)NC(=O)C3N2Nc2ccc(Cl)cc2Cl)cc1Br (stereo not drawn)
0.19

How about this compound: C=CCOC(=O)[C@@H]1[C@H]2C(=O)O[C@H](c3ccccc3)[C@H](c3ccccc3)N2[C@H](c2ccc(OCCOC(=O)[C@@H]3C[C@@H]4C(=O)N5CCC[C@H]5C(=O)N4[C@@H]3c3ccc(O)cc3)cc2)[C@@]12C(=O)Nc1ccc(I)cc12
-0.0958

How about this compound: COc1ccc(C(O)C2C=CC3C(=O)N(c4ccccc4)C(=O)C3N2Nc2ccc(C(C)C)cc2)cc1OCc1ccccc1 (stereo not drawn)
0.227

How about this compound: C=CC[C@]12N=C(c3ccc(OCCCO)cc3)O[C@H]1c1ccccc1N(Cc1ccccc1)C2=O
-0.0316

---

Some compounds, each annotated with its measured composite z-score.
test system: Human papillomavirus type 1a E7 protein (residues 1-88); experiment: HPV1a E7 small-molecule binders, primary screen, biochemical, small-molecule microarray, residues 1-88, 635 nm (AID 1129); conditions: small-molecule microarray binding, fluorescence 635 nm; higher = more signal

1) CN1C(=O)C2C=CC(C(O)C3=C[C@H]4C[C@@H](C3)C4(C)C)N(Nc3ccccc3)C2C1=O (some centres undefined) ... 1.19
2) CC(C)(C)OC(=O)CC[C@@]1(C(=O)NCCN2CCOCC2)N=C(c2ccc(OCCCO)cc2)O[C@@H]1c1ccccc1N=[N+]=[N-] ... 1.2
3) CS(=O)(=O)CCOC(=O)C1=CC(CCCO)=CC(c2ccc(CN3CCCC3)cc2)N(Cc2cc3c(cc2Br)OCO3)C=C1C(=O)OCCS(C)(=O)=O (centres undefined) ... 0.712

Please find the next compound below.
Need composite z-score, item C#CCN(Cc1ccccc1Br)C(/C=C/c1ccccc1)CO (centres undefined)
-0.265

---

experiment: Plasmodium falciparum growth inhibition, primary screen, strain 3D7, DAPI fluorescence, 100 nL (AID 1184);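 note: parasites grown inside human red blood cells in medium with human serum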; settings: P. falciparum 3D7 growth, 3 d, higher = more signal
reported_property: z-score
Write the value as a bare number.

Study these solved cases before continuing.
1. CN(C)CCCC[C@@H]1NC(=O)[C@H]2C[C@@H](C(=O)NCCCCCNC(=O)CS)[C@@H](c3cccc(OCCO)c3)N2C1=O ... -0.103
2. Cc1ccc(C(C)CC(O)C2C=CC3C(=O)N(C)C(=O)C3N2NC(=O)OC(C)(C)C)o1 (stereo not drawn) ... 0.556

Need z-score, item COc1cc2c(cc1OC)CN(C(=O)[C@H]1[C@@H]3C(=O)O[C@@H](c4ccccc4)[C@@H](c4ccccc4)N3[C@@H](c3ccc(O)cc3)[C@]13C(=O)Nc1ccc(C#CCNC(N)=O)cc13)CC2
-0.599

---

tested on: Lefty1; experiment: Lefty1 binders on small-molecule microarrays, primary screen, biochemical, small-molecule microarray, 635/667 nm fluorescence (AID 1139); details: small-molecule microarray binding, fluorescence 635/667; higher = more signal
reported_property: composite z-score

Need composite z-score, item C[N+](C)(C)CCCCNC(=O)[C@H]1C[C@H]2C(=O)N[C@@H](Cc3ccccc3)C(=O)N2[C@H]1c1ccc(O)cc1
0.985

How about this compound: O=C(NCc1ccccc1)[C@@H]1c2ccccc2C(=O)N(CC23CC4CC(CC(C4)C2)C3)[C@H]1c1ccc(CO)cc1
0.884

How about this compound: COc1ccc(C(=O)Nc2cccc(CN3C(=O)[C@]4(O[C@H](CCO)[C@@H]([Si](C)(C)c5ccc(OC)cc5)[C@@H]4C)c4ccccc43)c2)cc1
1.35

How about this compound: COc1cc2c(cc1O)C(C1CC1)N(Cc1cc3c(cc1Br)OCO3)CC2 (configuration not stated)
-1.01
